The origin of these recorded values is paper PMC9843824.

experiment: physchem; type: physicochemical
Measured logP by item
parameter: logP

compound	parameter	assay.result
Nc1nc(-c2ccc(OC(F)(F)F)cc2)c(Cl)s1 [SKA-376]	logP	4.53
Nc1nc(-c2ccc3ccccc3c2)cs1 [SKA-76, 4-(Naphthalen-2-yl)thiazol-2-amine]	logP	4.05
Nc1nc(-c2cccc3ccccc23)c(Br)s1 [SKA-219]	logP	4.76
Nc1nc(-c2cccc3ccccc23)cs1 [SKA-75, 4-(Naphthalen-1-yl)thiazol-2-amine]	logP	4.05
Nc1nc(-c2ccc(OC(F)(F)F)cc2)cs1 [SKA-41]	logP	4.58
Nc1nc(-c2cccc3ccccc23)c(Cl)s1 [SKA-378]	logP	4.2
Cc1ccc(-c2nc(N)sc2Br)c2ccccc12 [SKA-375]	logP	5.25
Nc1nc(-c2ccc3ccccc3c2)c(Br)s1 [SKA-220]	logP	4.42
Nc1nc(-c2ccc3ccccc3c2)c(F)s1 [SKA-382]	logP	4.14
Cc1ccc(-c2csc(N)n2)c2ccccc12 [SKA-190]	logP	4.53
Cc1ccc(-c2nc(N)sc2Cl)c2ccccc12 [SKA-377]	logP	4.91
Nc1nc(-c2ccc3ccccc3c2)c(Cl)s1 [SKA-379]	logP	4.42

* * *

assay: in vitro; format: in vitro ADME; conditions: rat, plasma
Is fraction unbound at least 0.01? Then Fulfilled. If not, Not fulfilled.

compound.structure	cat
Nc1nc(-c2cccc3ccccc23)c(Br)s1	Not fulfilled
Nc1nc(-c2cccc3ccccc23)c(Cl)s1	Not fulfilled
Nc1nc(-c2ccc(OC(F)(F)F)cc2)cs1	Fulfilled
Nc1nc(-c2ccc(OC(F)(F)F)cc2)c(Cl)s1	Fulfilled
